# System: MDA-MB-231 multicell spheroids, viability
# method summary: Anticancer human tumor MDA-MB-231 cell line growth inhibition [PI3K];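 note: spheroids exposed to agents for seven days before reading; percent of vehicle control luminescence with DMSO treated spheroids as 100%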
# condition notes: second compound 0.316 µM; first compound 0.1 µM; stronger effect = lower value
endpoint: viability, T/C (%)

{"compound": "C[C@@H](NC(=O)c1ncnc(N)c1Cl)c1ncc(C(=O)Nc2cc(C(F)(F)F)c(Cl)cn2)s1 + CC(Nc1ncnc2nc[nH]c12)c1cc2cccc(Cl)c2c(=O)n1-c1ccccc1", "endpoint": "viability, T/C", "test value": 124}
{"compound": "C=CC(=O)N1CCN(c2nc(=O)n(-c3c(C)ccnc3C(C)C)c3nc(-c4c(O)cccc4F)c(F)cc23)C(C)C1 (stereo not given) + CC(Nc1ccc2c(c1)OCCn1cc(N3C(=O)OCC3C(F)F)nc1-2)C(N)=O", "endpoint": "viability, T/C", "test value": 64.6}
{"compound": "Cn1nccc1Nc1nccc(-c2ccn(C(CO)c3ccc(Cl)c(F)c3)c(=O)c2)n1 (stereo not given) + CC(Nc1ncnc2nc[nH]c12)c1cc2cccc(Cl)c2c(=O)n1-c1ccccc1", "endpoint": "viability, T/C", "test value": 62.3}
{"compound": "C#Cc1c(F)ccc2cc(O)cc(-c3ncc4c(N5CC6CCC(C5)N6)nc(OCC56CCCN5CC(F)C6)nc4c3F)c12 (stereo not given) + COc1c(OCCCN2CCOCC2)ccc2c3n(c(=NC(=O)c4cnc(N)nc4)nc12)CCN3", "endpoint": "viability, T/C", "test value": 31.5}
{"compound": "C[C@@H](NC(=O)c1ncnc(N)c1Cl)c1ncc(C(=O)Nc2cc(C(F)(F)F)c(Cl)cn2)s1 + CC(Nc1ccc2c(c1)OCCn1cc(N3C(=O)OCC3C(F)F)nc1-2)C(N)=O", "endpoint": "viability, T/C", "test value": 66.3}

----------
# System: MDA-MB-231 multicell spheroids, viability
# method summary: Anticancer human tumor MDA-MB-231 cell line growth inhibition [PI3K];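 note: spheroids exposed to agents for seven days before reading; percent of vehicle control luminescence with DMSO treated spheroids as 100%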
# condition notes: second compound 0.00316 µM; first compound 0.000316 µM; stronger effect = lower value
Recorded measurements of viability, T/C, one per entry
endpoint: viability, T/C

{"compound": "Cn1ncnc1[C@H]1c2n[nH]c(=O)c3cc(F)cc(c23)N[C@@H]1c1ccc(F)cc1 + CC(Nc1ccc2c(c1)OCCn1cc(N3C(=O)OCC3C(F)F)nc1-2)C(N)=O", "subject of test": "MDA-MB-231 multicell spheroids, viability", "test value": "99.1%"}
{"compound": "CC(C)n1nc(-c2ccc3oc(N)nc3c2)c2c(N)ncnc21 + COc1c(OCCCN2CCOCC2)ccc2c3n(c(=NC(=O)c4cnc(N)nc4)nc12)CCN3", "subject of test": "MDA-MB-231 multicell spheroids, viability", "test value": "98.6%"}
{"compound": "Cn1ncnc1[C@H]1c2n[nH]c(=O)c3cc(F)cc(c23)N[C@@H]1c1ccc(F)cc1 + COc1c(OCCCN2CCOCC2)ccc2c3n(c(=NC(=O)c4cnc(N)nc4)nc12)CCN3", "subject of test": "MDA-MB-231 multicell spheroids, viability", "test value": "94%"}
{"compound": "CC(C)n1nc(-c2ccc3oc(N)nc3c2)c2c(N)ncnc21 + CC(Nc1ccc2c(c1)OCCn1cc(N3C(=O)OCC3C(F)F)nc1-2)C(N)=O", "subject of test": "MDA-MB-231 multicell spheroids, viability", "test value": "101%"}
{"compound": "CC(=O)c1c(C)c2cnc(Nc3ccc(N4CCNCC4)cn3)nc2n(C2CCCC2)c1=O + CC(Nc1ccc2c(c1)OCCn1cc(N3C(=O)OCC3C(F)F)nc1-2)C(N)=O", "subject of test": "MDA-MB-231 multicell spheroids, viability", "test value": "108%"}
{"compound": "CC(=O)c1c(C)c2cnc(Nc3ccc(N4CCNCC4)cn3)nc2n(C2CCCC2)c1=O + COc1c(OCCCN2CCOCC2)ccc2c3n(c(=NC(=O)c4cnc(N)nc4)nc12)CCN3", "subject of test": "MDA-MB-231 multicell spheroids, viability", "test value": "96.5%"}
